# MEASUREMENT_NOTES: in vitro
# CONDITION_DETAILS: human, hela cells, % viability

COMPOUND	viability at 28.5 h, 10 µM [%]
COC(=O)c1sc2ncccc2c1NS(=O)(=O)Cc1ccccc1[N+](=O)[O-]	102
CC(C)(CO)CNc1nc(-c2cc(C(F)(F)F)cc(C(F)(F)F)c2)cnc1N	101
O=C(c1ccco1)N1CCN(c2ncnc3scc(-c4cccs4)c23)CC1	110
Cn1cccc1C(=O)NCCNC(=O)c1cc2ccccc2[nH]1	87.7
COc1cnc(-c2cccc(C(=O)N(C)C)c2)c(NC(=O)c2ccccc2)n1	102
O=C(O)Cc1ccc(-c2ccccc2)cc1	104
CC(=O)COc1cc(OCC(C)=O)c2c3c(c(=O)oc2c1)CCC3	85.1
Oc1cccnc1CCc1ccccc1 [CBK026334C]	100
CC(=O)C1=C(O)C(=O)N(CC(=O)O)C1c1cccc([N+](=O)[O-])c1 (centres unmarked)	97.4
CSc1nnc(Cc2nnc(SC)n2-c2ccccc2)n1-c1ccccc1	105
CC(=O)NCc1cccc(-c2cc(C(=O)Nc3ccc4c(c3)OCCO4)cnc2O)c1 [CBK149871T]	91.6

====

# MEASUREMENT_NOTES: in vitro
# CONDITION_DETAILS: human, hela cells, % viability
The following compounds are listed with their measured viability at 28.5 h, 10 µM values.
OBSERVED_PROPERTY: viability at 28.5 h, 10 µM (%)

COMPOUND	OBSERVED_PROPERTY	MEASUREMENT_UNIT	VALUE_MEASURED
O=C(O)c1ccc(CSc2nnc(-c3ccncc3)n2-c2ccc(Br)cc2)cc1 [CBK267559]	viability at 28.5 h, 10 µM	%	84.9
O=C(Nc1cccc(-c2cn3cccnc3n2)c1)c1cccc([N+](=O)[O-])c1 [CBK268963]	viability at 28.5 h, 10 µM	%	93
CCN(Cc1cccs1)C(=O)NC1CCCc2c1cnn2CCO (stereo not shown) [CBK305768]	viability at 28.5 h, 10 µM	%	81.6
O=C(NCc1cccc2ccccc12)N1CCCCC1CO (stereo not shown) [CBK156167]	viability at 28.5 h, 10 µM	%	99.7
COc1cc(C(=S)N2CCN(C)CC2)ccc1OCC(N)=O [CBK269037]	viability at 28.5 h, 10 µM	%	84.7
Cc1cc(C)c(C)c(OCC(=O)N(Cc2nc(-c3ccccc3)no2)C2CCCCC2)c1 [CBK268974]	viability at 28.5 h, 10 µM	%	104
Cc1cc2cc(NC(=O)CCc3c(C)n[nH]c3C)ccc2o1 [CBK283077]	viability at 28.5 h, 10 µM	%	84.2
C[C@]12CN(Cc3ccccc3)C[C@H]1NC(=O)c1ccccc1C2=O [CBK284703]	viability at 28.5 h, 10 µM	%	96.5
O=C(NCC1COc2ccccc2O1)N1CCCCC1CO (stereo not shown) [CBK156162]	viability at 28.5 h, 10 µM	%	103
Cc1cc(N2CCOC(c3nc(C)n[nH]3)C2)c2ccc(F)c(F)c2n1 (stereo not shown) [CBK306018]	viability at 28.5 h, 10 µM	%	92.2
CCOC(=O)c1cnc2ccc(C(CCOCc3ccccc3)OCc3ccccc3)cc2c1O (stereo not shown) [CBK018405]	viability at 28.5 h, 10 µM	%	93.8
OC1(c2cccnc2)CCN(CC2(c3ccc(Cl)cc3)CC2)CC1 [CBK282780]	viability at 28.5 h, 10 µM	%	93
O=C(Nc1snnc1-c1ccc(Cl)cc1)c1ccc(OC(F)(F)F)cc1 [CBK153247]	viability at 28.5 h, 10 µM	%	70.5
O=C(NC1CCCC1)c1ccncc1 [CBK143916]	viability at 28.5 h, 10 µM	%	117
Cc1cc(C)nc(SCC(=O)N/N=C2/C(=O)Nc3ccccc32)n1 [CBK262883]	viability at 28.5 h, 10 µM	%	108
CCCCN1CC(C(=O)Nc2nccs2)CC1=O (stereo not shown) [CBK288224]	viability at 28.5 h, 10 µM	%	95.3
CCN(CC)CCOC1CCc2ccccc2CC1 [CBK016730C]	viability at 28.5 h, 10 µM	%	96.7
O=S(=O)(Cc1ccccc1)Nc1nnc(C(F)(F)F)s1 [CBK045539]	viability at 28.5 h, 10 µM	%	84.8
CC(C)(CN(Cc1ccccc1)C(=O)/C=C/c1ccccc1)NC(=O)OC(C)(C)C [CBK003266]	viability at 28.5 h, 10 µM	%	91.2

# credit: paper PMC12040169
